All figures here come from ChEMBL document CHEMBL1909046.

tested_system: Adenosine receptor A1 (Homo sapiens, UniProt P30542); further: in other assays of this panel Not Active means under 50% inhibition at 10 µM;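 further: radioligand binding assay at the adenosine A1 receptor, with DPCPX serving as the labelled ligand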
Sequence (P30542 whole entry): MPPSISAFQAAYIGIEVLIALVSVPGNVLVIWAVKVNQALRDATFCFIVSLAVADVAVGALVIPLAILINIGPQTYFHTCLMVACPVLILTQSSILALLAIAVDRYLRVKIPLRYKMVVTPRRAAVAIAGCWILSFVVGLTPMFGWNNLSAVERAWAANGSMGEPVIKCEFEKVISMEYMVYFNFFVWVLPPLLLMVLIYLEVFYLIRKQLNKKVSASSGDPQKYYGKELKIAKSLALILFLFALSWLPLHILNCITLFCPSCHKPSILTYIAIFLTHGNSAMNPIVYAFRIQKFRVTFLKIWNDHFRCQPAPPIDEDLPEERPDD
Type: cell membranes, CHO, Membrane
applied_conditions: cho
quantity_measured: IC50

Here's what some known entries look like.
{"molecule": "COc1ccc(CCN(C)CCCC(C#N)(c2ccc(OC)c(OC)c2)C(C)C)cc1OC (stereo not given)", "IC50": "Not Active"}
{"molecule": "COc1cc(N)c(Cl)cc1C(=O)NC1CCN(CCCOc2ccc(F)cc2)CC1OC (stereo not given) [CISAPRIDE]", "IC50": "Not Active"}
{"molecule": "CCN1CCC[C@H]1CNC(=O)c1cc(S(N)(=O)=O)ccc1OC [LEVOSULPIRIDE]", "IC50": "Not Active"}
{"molecule": "CC1(C)S[C@@H]2[C@H](NC(=O)[C@H](N)c3ccccc3)C(=O)N2[C@H]1C(=O)O [AMPICILLIN]", "IC50": "Not Active"}

With those in mind, consider the next molecule.
Q) Field request: IC50 | item: CC(C)NCC(O)COc1cccc2[nH]ccc12 (stereo not given) [PINDOLOL]
A) Not Active

====

tested_system: UniProt:P0DMS8
Sequence (P0DMS8 whole entry): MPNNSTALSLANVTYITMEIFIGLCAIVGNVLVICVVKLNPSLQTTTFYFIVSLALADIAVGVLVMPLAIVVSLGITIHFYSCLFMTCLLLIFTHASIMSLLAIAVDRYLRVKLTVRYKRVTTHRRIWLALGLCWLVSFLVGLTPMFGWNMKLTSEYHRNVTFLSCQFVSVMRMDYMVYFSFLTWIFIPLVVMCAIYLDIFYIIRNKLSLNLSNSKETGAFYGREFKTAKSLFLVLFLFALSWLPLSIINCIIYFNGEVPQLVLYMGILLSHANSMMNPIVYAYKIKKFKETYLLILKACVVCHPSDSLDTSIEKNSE
Format: cell membranes, CHO-K1, Membrane
applied_conditions: read-out: Ki
quantity_measured: pKi
# log scale: pKi equals minus log10 of the concentration in mol/L

{"compound": "Fc1ccc(C(c2ccc(F)cc2)N2CCN(C/C=C/c3ccccc3)CC2)cc1", "tested_system": "UniProt:P0DMS8", "pKi": 5.53}
{"compound": "Cc1c(C)c2c(c(C)c1O)CCC(C)(CN1CCN(c3cc(N4CCCC4)nc(N4CCCC4)n3)CC1)O2 (centres undefined)", "tested_system": "UniProt:P0DMS8", "pKi": 5.22}
{"compound": "Oc1c(Cl)cc(Cl)c(Cl)c1Cc1c(O)c(Cl)cc(Cl)c1Cl", "tested_system": "UniProt:P0DMS8", "pKi": 6.44}

Now consider a different compound.
Q) Name the reported pKi value associated with the compound CC(=O)[C@@]1(O)CC[C@H]2[C@@H]3CCC4=CC(=O)CC[C@]4(C)[C@H]3CC[C@@]21C [HYDROXYPROGESTERONE]
A) 5.57

====

run_description: DRUGMATRIX: Purinergic P2X radioligand binding (ligand: [3H] alpha, beta-Methylene-ATP)
Format: cell membranes, Oryctolagus cuniculus, New Zealand albino, Urinary bladder, Membrane
applied_conditions: Not Active = under 50% inhibition at 10 µM
quantity_measured: Ki

Some solved cases for reference:
{"compound": "CC(C)(C)NC(=O)[C@H]1CC[C@H]2[C@@H]3CC[C@H]4NC(=O)C=C[C@]4(C)[C@H]3CC[C@]12C [FINASTERIDE]", "result": "Not Active"}
{"compound": "CCCN(CCC)S(=O)(=O)c1ccc(C(=O)O)cc1", "result": "Not Active"}
{"compound": "Nc1ccn([C@@H]2O[C@H](CO)[C@@H](O)[C@@H]2O)c(=O)n1", "result": "Not Active"}
{"compound": "CO[C@@H]1[C@@H](OC)[C@H](C)[C@@](O)(CC(=O)O)O[C@H]1[C@H](C)[C@H]1O[C@@]2(CC[C@@](C)([C@H]3CC[C@@](C)([C@@H]4O[C@@H]([C@H]5O[C@](C)(O)[C@H](C)C[C@@H]5C)C[C@@H]4O[C@@H]4C[C@H](OC)[C@@H](OC)[C@H](C)O4)O3)O2)C[C@H](O)[C@H]1C", "result": "Not Active"}
{"compound": "N=C(N)NC(=O)Cc1c(Cl)cccc1Cl", "result": "Not Active"}

Q) Give its Ki value. Item: O=C(O)c1cccnc1Nc1cccc(C(F)(F)F)c1
A) Not Active

====

tested_system: Vasoactive intestinal polypeptide receptor 1 (Homo sapiens); further: in other assays of this panel Not Active means under 50% inhibition at 10 µM
Sequence (P32241 whole entry): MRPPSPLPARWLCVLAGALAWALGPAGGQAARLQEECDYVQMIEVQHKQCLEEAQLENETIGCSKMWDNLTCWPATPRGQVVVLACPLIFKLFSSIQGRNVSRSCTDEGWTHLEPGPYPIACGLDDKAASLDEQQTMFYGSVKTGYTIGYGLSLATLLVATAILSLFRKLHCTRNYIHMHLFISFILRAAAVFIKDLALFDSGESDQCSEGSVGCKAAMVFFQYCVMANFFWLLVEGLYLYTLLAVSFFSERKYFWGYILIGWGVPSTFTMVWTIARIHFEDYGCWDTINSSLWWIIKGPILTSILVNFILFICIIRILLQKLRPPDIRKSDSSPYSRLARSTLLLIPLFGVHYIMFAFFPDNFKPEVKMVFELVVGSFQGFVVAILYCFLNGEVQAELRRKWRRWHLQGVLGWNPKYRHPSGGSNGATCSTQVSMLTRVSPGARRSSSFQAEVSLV
Format: cell membranes, Membrane
applied_conditions: ht-29
quantity_measured: IC50

Completed entries (count: 5):
{"substance": "NYSTATIN", "IC50": "Not Active"}
{"substance": "GENTAMICIN", "IC50": "Not Active"}
{"substance": "GADOPENTETATE DIMEGLUMINE", "IC50": "Not Active"}
{"substance": "SODIUM ORTHOVANAD", "IC50": "Not Active"}
{"substance": "AURANOFIN", "IC50": "Not Active"}

Q) Can you look up the measured IC50 of MANGANESE CHLORIDE ANHYDROUS for me?
A) Not Active

Q) Look up IC50 for this substance: GRAMICIDIN
A) Not Active

====

tested_system: Alpha-1A adrenergic receptor (Rattus norvegicus)
Sequence (P43140 whole entry): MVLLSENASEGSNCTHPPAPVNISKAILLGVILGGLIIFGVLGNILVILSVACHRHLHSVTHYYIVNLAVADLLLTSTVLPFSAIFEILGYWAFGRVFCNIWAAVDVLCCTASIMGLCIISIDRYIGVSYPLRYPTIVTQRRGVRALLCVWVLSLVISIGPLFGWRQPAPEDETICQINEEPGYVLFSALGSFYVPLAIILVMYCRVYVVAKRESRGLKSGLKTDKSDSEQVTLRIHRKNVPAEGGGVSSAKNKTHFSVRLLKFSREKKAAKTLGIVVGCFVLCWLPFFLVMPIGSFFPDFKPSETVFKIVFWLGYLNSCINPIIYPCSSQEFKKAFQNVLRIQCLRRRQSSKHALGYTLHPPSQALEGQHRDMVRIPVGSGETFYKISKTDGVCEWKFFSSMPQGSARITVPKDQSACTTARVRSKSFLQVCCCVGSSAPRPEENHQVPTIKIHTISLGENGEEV
run_description: DRUGMATRIX: Alpha-1A adrenergic receptor radioligand binding (ligand: prazosin)
Assay type: cell membranes, Wistar, Submaxillary gland, Membrane
applied_conditions: Not Active = under 50% inhibition at 10 µM; read-out: Ki
quantity_measured: pKi
Please treat pKi as minus the base-10 logarithm of the molar concentration.

{"molecule": "CC[C@H]1CN2CCc3cc(OC)c(OC)cc3[C@@H]2C[C@@H]1C[C@H]1NCCc2cc(OC)c(OC)cc21 [EMETINE]", "pKi": 5.58}
{"molecule": "COc1cc(N)c(Cl)cc1C(=O)NC1CCN(CCCOc2ccc(F)cc2)CC1OC (stereo not given) [CISAPRIDE]", "pKi": 7.31}
{"molecule": "Brc1c(NC2=NCCN2)ccc2nccnc12 [BRIMONIDINE]", "pKi": 5.59}
{"molecule": "Fc1ccc(C(c2ccc(F)cc2)N2CCN(C/C=C/c3ccccc3)CC2)cc1 [FLUNARIZINE]", "pKi": 6.36}

Q) Would you kindly share the measured pKi for Clc1ccc(COC(Cn2ccnc2)c2ccc(Cl)cc2Cl)cc1 (stereo not given) [ECONAZOLE] ?
A) 5.07

====

run_description: DRUGMATRIX: Sodium/nucleoside co-transporter radioligand binding (ligand: nitrobenzylthioinosine)
Format: cell membranes, Cavia porcellus, Dunkin-Hartley, Cerebral cortex, Membrane
applied_conditions: Not Active = under 50% inhibition at 10 µM
quantity_measured: IC50

These solved cases illustrate the format of a correct answer.
{"compound": "COc1ccc2[nH]cc(CCNC(C)=O)c2c1", "quantity_measured": "IC50", "result": "Not Active"}
{"compound": "CN(C)[C@@H]1C(O)=C(C(N)=O)C(=O)[C@@]2(O)C(O)=C3C(=O)c4c(O)ccc(Cl)c4[C@@](C)(O)[C@H]3C[C@@H]12", "quantity_measured": "IC50", "result": "Not Active"}
{"compound": "CC(c1cc2ccccc2s1)N(O)C(N)=O (stereo not drawn)", "quantity_measured": "IC50", "result": "Not Active"}
{"compound": "N=C(N)NC(=O)Cc1c(Cl)cccc1Cl", "quantity_measured": "IC50", "result": "Not Active"}
{"compound": "Cn1c(=O)c2[nH]cnc2n(C)c1=O.Cn1c(=O)c2[nH]cnc2n(C)c1=O.NCCN", "quantity_measured": "IC50", "result": "Not Active"}

Q) Any idea what its IC50 is? The compound is CCCN(CCC)S(=O)(=O)c1ccc(C(=O)O)cc1
A) Not Active

Q) # input compound: CC(C)(C)NC(=O)[C@H]1CC[C@H]2[C@@H]3CC[C@H]4NC(=O)C=C[C@]4(C)[C@H]3CC[C@]12C [FINASTERIDE] ; wanted: its IC50
A) Not Active

Q) I have this compound here, O=C(O)c1cn(-c2ccc(F)cc2)c2cc(N3CCNCC3)c(F)cc2c1=O , and I need its recorded IC50.
A) Not Active

====

tested_system: UniProtKB P49146
Sequence (P49146 whole entry): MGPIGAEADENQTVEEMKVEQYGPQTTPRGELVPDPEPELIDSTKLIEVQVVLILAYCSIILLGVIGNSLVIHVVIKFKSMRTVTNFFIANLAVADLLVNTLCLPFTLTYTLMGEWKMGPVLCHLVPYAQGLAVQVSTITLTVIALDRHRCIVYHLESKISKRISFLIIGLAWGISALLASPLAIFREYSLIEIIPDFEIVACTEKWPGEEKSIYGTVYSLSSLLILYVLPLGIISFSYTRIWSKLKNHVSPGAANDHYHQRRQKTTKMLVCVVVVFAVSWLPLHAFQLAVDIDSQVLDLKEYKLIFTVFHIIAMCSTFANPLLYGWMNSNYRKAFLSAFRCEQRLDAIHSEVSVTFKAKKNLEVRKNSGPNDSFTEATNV
Format: cell membranes, KAN-TS, Membrane
applied_conditions: kan-ts
quantity_measured: IC50

The cases that follow already have their IC50 on record.
{"compound": "COc1cc([C@@H]2c3cc4c(cc3[C@@H](O[C@@H]3O[C@@H]5CO[C@@H](C)O[C@H]5[C@H](O)[C@H]3O)[C@H]3COC(=O)[C@H]23)OCO4)cc(OC)c1O [ETOPOSIDE]", "IC50": "Not Active"}
{"compound": "CN1[C@@H]2CC[C@H]1C[C@@H](OC(=O)C(CO)c1ccccc1)C2 (some centres undefined)", "IC50": "Not Active"}
{"compound": "CCC1(C)CC(=O)NC1=O (centres undefined) [ETHOSUXIMIDE]", "IC50": "Not Active"}
{"compound": "Oc1cccc(O)c1O", "IC50": "Not Active"}

Q) Given the entry O=c1cc(N2CCOCC2)oc2c(-c3ccccc3)cccc12 , report its measured IC50.
A) Not Active

Q) # lookup: IC50 of CC(c1cc2ccccc2s1)N(O)C(N)=O (centres undefined)
A) Not Active

Q) Could you share which IC50 value was measured for CCN(CC)CCNC(=O)c1cc(S(C)(=O)=O)ccc1OC [TIAPRIDE] ?
A) Not Active

Q) Value lookup for IC50; key = N#Cc1ccc(C(c2ccc(C#N)cc2)n2cncn2)cc1
A) Not Active

Q) Please look up its IC50: COC1=C(OC)C(=O)C(CCCCCCCCCCO)=C(C)C1=O
A) Not Active

Q) Recorded IC50 for C[C@H]1O[C@@H](n2cc(F)c(=O)[nH]c2=O)[C@H](O)[C@@H]1O , please?
A) Not Active
